- RUN_DESCRIPTION: STAT1 signaling activators, primary screen, cell-based, HTS, luciferase reporter (AID 932);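 note: raw ratio to IFN-gamma control signal so 100% means no change and 0% no light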
- TEST_SETTINGS: NIH 3T3 STAT1-luciferase reporter, IFN-gamma, luminescence; at 5.5 µM; 100% = IFN-gamma alone, no compound
Among all 200,000 compounds or so, about 5,100 (2.5%) were called active.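 Rule for the calls: active = activation above the screen-wide mean activation plus 3 SD (cut at about 130% in these data); inactive = the rest.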 The list comes from a sample in which actives are over-represented; it also holds close analogues and randomly drawn compounds.
Labels: active, inactive

# COMPOUND, LABEL_VALUE
data = [
    ("COc1ccc2[nH]c(=O)c(-c3noc(-c4ccc(F)cc4)n3)cc2c1", "inactive"),
    ("Cc1ccc(N(CC(=O)Nc2cccc(N(C)S(C)(=O)=O)c2)S(C)(=O)=O)cc1", "inactive"),
    ("O=C(Nc1nc(-c2cccnc2)cs1)c1ccccc1F", "active"),
    ("CN1CCN(c2ccc(NC(=O)c3ccc4c(c3)OCCO4)cc2Cl)CC1", "active"),
    ("COc1cc2c3c(c1)/C(=C1/SC(=S)NC1=O)C(=O)N3C(C)(C)C=C2C", "inactive"),
    ("Cc1ccc([N+](=O)[O-])c(OCCCNCC(C)O)c1 (centres undefined)", "inactive"),
    ("CC(=O)Cc1nsc(NC(=O)c2csc3c2CCCC3)n1", "inactive"),
    ("O=C(NCc1ccccc1Cl)c1csc2c1CCCCC2", "inactive"),
    ("COCCNC(=O)C(OC(=O)c1cccs1)c1ccc(F)cc1 (centres undefined)", "inactive"),
    ("COc1ccc(CCNC(=O)CN(c2ccccc2)S(C)(=O)=O)cc1", "inactive"),
    ("CC(=O)c1c(C)[nH]c(C(=O)OCC(=O)NCCC(C)C)c1C", "inactive"),
    ("CC(C)(C)NC(=O)NC(=O)COC(=O)Cc1c(F)cccc1Cl", "inactive"),
    ("CC(=O)c1sc(NC(=O)CCCOc2ccccc2C)nc1C", "inactive"),
    ("Cc1ccc(-c2cc(C(=O)N/N=C/C=C/c3ccco3)c3ccccc3n2)cc1C", "inactive"),
    ("O=C(Nc1ccc2c(c1)OCCO2)c1ccc(Cl)c(S(=O)(=O)N2CCCCC2)c1", "inactive"),
    ("COc1ccc(-c2nc(-c3ccccc3)no2)c(OC)c1", "inactive"),
    ("CNC(=S)N/N=C/c1ccc(OCc2ccccc2)c(Br)c1", "inactive"),
    ("CC(C)(C)NC(=O)Cn1nnc(-c2ccccc2Cl)n1", "active"),
    ("Cc1ccc2nc(-c3ccc(NC(=O)CN(C)S(=O)(=O)c4ccccc4)cc3)sc2c1", "inactive"),
    ("Cc1cccc(NC(=O)c2ccc3ccccc3n2)n1", "active"),
    ("COc1cc(/C=N/n2c(C)n[nH]c2=S)ccc1OCc1ccccc1", "active"),
    ("OCCC1CN(Cc2cnc(-c3ccccc3)s2)CCN1CCc1ccccc1 (centres undefined)", "inactive"),
    ("COC(=O)c1sc(NC(=O)c2csc3c2CCCC3)nc1C", "active"),
    ("CCn1c(CSc2nc(C)cc(C)n2)nnc1SCC(N)=O", "inactive"),
    ("CCc1ccc(NC(=O)CC2C(=O)NCCN2C(=S)Nc2ccccc2)cc1 (centres undefined)", "inactive"),
    ("CC(C)OC(=O)CN1CCN(c2ccc(Cl)cc2)CC1", "inactive"),
    ("O=C(CC1C(=O)NCCN1Cc1ccc(-c2ccccc2)cc1)NCC1CCOCC1 (centres undefined)", "inactive"),
    ("OCC1(CCc2ccccc2)CCN(Cc2ccc3nsnc3c2)CC1", "inactive"),
    ("Cc1cccc(NC(=O)c2cc(N3C(=O)CCC3=O)ccc2Cl)n1", "inactive"),
    ("COC(=O)C1=C(N)Oc2c(oc(CO)cc2=O)C1c1c(F)cccc1Cl (centres undefined)", "inactive"),
    ("Cc1ccccc1-c1nnn(CC(=O)c2ccc(S(=O)(=O)N3CCCC3)cc2)n1", "inactive"),
    ("Cn1c(=O)c2c(ncn2CCc2ccccc2)n(C)c1=O", "inactive"),
    ("Cc1ccc(NC(=O)c2c(NC(=O)CCC(=O)O)sc3c2CCCCC3)cc1", "inactive"),
    ("C#CCOCCOCCOCCNc1nc(N2CCN(C(=O)C(Cc3ccc(O)cc3)n3cc(C(N)CC(C)C)nn3)CC2)nc(N2CCN(C(=O)C(Cc3ccc(O)cc3)n3cc(C(N)C(C)CC)nn3)CC2)n1 (centres undefined)", "inactive"),
    ("Cc1cccc(N(CC(=O)Nc2ccc(-c3nc4ccc(C)cc4s3)cc2)S(C)(=O)=O)c1", "active"),
    ("CC(=O)c1sc(N/N=C\\c2ccc(C)cc2)nc1C", "active"),
    ("COc1ccc(/C=N/NC(=O)Cn2cc(C(F)(F)F)ccc2=O)cc1", "inactive"),
    ("O=C(Nc1nc(-c2ccc(-c3ccccc3)cc2)cs1)c1cnccn1", "inactive"),
    ("Cc1ccc(NC(=O)c2csc3c2CCCC3)cc1", "active"),
    ("CCN1CCc2nc(NC(=O)c3cc(F)c(F)cc3Cl)sc2C1", "inactive"),
    ("CC(=O)Nc1ccc(S(=O)(=O)NC2(C(F)(F)F)C(=O)Nc3c2c(=O)[nH]c(=O)n3Cc2ccccc2)cc1 (centres undefined)", "inactive"),
    ("O=C(Cn1nnc(-c2ccccc2)n1)NCc1ccccc1", "inactive"),
    ("CCCCOC(=O)c1[nH]c(C)c(C(=O)OC)c1C", "active"),
    ("N=C1C(=O)OCC1c1ccccc1NC(=O)CN1CCCCC1 (centres undefined)", "inactive"),
]

----------
The entries below come with measured activation (% of control) values attached.
- RUN_DESCRIPTION: STAT1 signaling activators, primary screen, cell-based, HTS, luciferase reporter (AID 932);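 note: raw ratio to IFN-gamma control signal so 100% means no change and 0% no light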
- TEST_SETTINGS: NIH 3T3 STAT1-luciferase reporter, IFN-gamma, luminescence; at 5.5 µM; hits give high values; 100% = IFN-gamma alone, no compound
The whole screen tested about 200,000 compounds, of which about 5,100 (2.5%) were called active. For the sample, actives were picked, then their nearest neighbours and some compounds at random.

# COMPOUND, activation (% of control)
rows = [
    ("Cn1c(SCC(=O)NC2CCCCC2)nnc1-c1ccc(N)cc1", "101% (inactive)"),
    ("Cc1ccccc1CC1(CO)CCCN(C(=O)c2cc(-c3ccccc3)no2)C1 (stereo unspecified)", "104% (inactive)"),
    ("CN(c1ccccc1)S(=O)(=O)c1ccc(Cl)c(C(=O)NCCc2c[nH]c3ccccc23)c1", "95% (inactive)"),
    ("O=C(NCCc1c[nH]c2ccccc12)C(=O)NCC1CCCO1 (stereo unspecified)", "109% (inactive)"),
    ("O=C(NCCc1c[nH]c2ccccc12)c1cc2ccccc2oc1=O", "143% (active)"),
    ("C/C=C/c1ccc(OCCCCN2CCC(C)CC2)c(OC)c1", "98.3% (inactive)"),
]

----------
- RUN_DESCRIPTION: STAT1 signaling activators, primary screen, cell-based, HTS, luciferase reporter (AID 932);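 note: raw ratio to IFN-gamma control signal so 100% means no change and 0% no light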
- TEST_SETTINGS: NIH 3T3 STAT1-luciferase reporter, IFN-gamma, luminescence; at 5.5 µM; hits give high values; 100% = IFN-gamma alone, no compound
The campaign covered roughly 200,000 compounds. About 5,100 (2.5%) were called active. Many of the other results were omitted from the sample, so actives are more common in it than they were.
The entries below come with measured activation (% of control) values attached.

# COMPOUND, activation (% of control)
data = [
    ("CCOC(=O)C1CCCN(C(=O)COc2ccc(N(C)S(=O)(=O)c3ccc(C)cc3)cc2)C1 (stereo not drawn)", "102% (inactive)"),
    ("Cc1ccc(C(=O)COC(=O)c2cccc(N3C(=O)c4c(C)nc5ccccc5c4C3=O)c2)cc1C", "149% (active)"),
    ("Cn1cccc1/C=C1\\SC(=O)N(CC(=O)Nc2ccc(F)cc2)C1=O", "100% (inactive)"),
    ("O=C(CCc1nc2ccccc2c(=O)[nH]1)OCC(=O)c1cccc(Cl)c1", "93.7% (inactive)"),
    ("c1ccc(CN=C2Nc3ccccc3CS2)nc1", "135% (active)"),
    ("COc1cccc(C(=O)Nc2cccnc2)c1OC", "96.6% (inactive)"),
    ("CNC(=O)c1ccc(NC(=O)c2cccc(C(F)(F)F)c2)cc1", "98.4% (inactive)"),
    ("COc1ccc(NC(=O)c2ccc(OC)cc2)cc1", "140% (active)"),
    ("COc1ccc(OC)c(N=Cc2c(O)[nH]c3ccccc23)c1", "115% (inactive)"),
    ("CCN(CC)c1ccc(C(=O)c2cnc(/N=C/N(C)C)s2)cc1", "118% (inactive)"),
    ("CS(=O)(=O)n1nc(-c2ccco2)nc1N", "105% (inactive)"),
    ("CCN1CC(CN(C)Cc2nc(-c3ccc(Cl)cc3)no2)CC1=O (stereo not drawn)", "96.3% (inactive)"),
    ("O=C(CCSc1ccccc1)N1CCN(c2ccccc2F)CC1", "135% (active)"),
    ("COc1ccc(NC(=O)Nc2ccc3nsnc3c2)cc1", "146% (active)"),
    ("COc1cc(/C=N\\Nc2ccc([N+](=O)[O-])cn2)ccc1OCC(=O)O", "98% (inactive)"),
    ("COc1cc(N=Cc2c(O)[nH]c3ccccc23)cc(OC)c1OC", "115% (inactive)"),
    ("Cc1ccc(N(Cc2cc3ccccc3[nH]c2=O)C(=O)c2cccs2)cc1", "91.2% (inactive)"),
    ("COc1ccc(CC(=O)NCc2nnc(SCC(=O)Nc3nccs3)n2C)cc1", "91.2% (inactive)"),
    ("CN(C)C(=O)CSc1n[nH]c(-c2ccco2)n1", "101% (inactive)"),
    ("CN(CCC1CCOCC1)Cc1cn[nH]c1-c1ccc(-c2ccccc2)cc1", "115% (inactive)"),
    ("Cc1cccc(-n2cnc(C(=O)NNC(=S)Nc3ccccc3)c2)n1", "92% (inactive)"),
    ("CCOC(=O)C1CCN(CCC(=O)Nc2cccc(C)c2)CC1", "98.8% (inactive)"),
    ("Cc1ccc(C)c2[nH]c(=O)c(CCNC(=O)c3cccs3)cc12", "102% (inactive)"),
]
